test: CHOP2 Reporter Counterscreen Assay for Inhibitors of Ubiquitin-specific Protease USP2a; settings: purified enterokinase, fluorogenic substrate, 485/531 nm; series mostly up to 38.3 µM;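 note: activated enterokinase alone at 50 pM in a cell-free format rather than USP2a or CHOP2; nearly all actives have a fitted effect of over 55% in size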
Inconclusive results are not listed. The source made the active and inactive calls. Calls come from the whole dose curve; as a rule, active = well fitted inhibition curve with a large enough effect; inconclusive = small, poorly fitted or top-dose-only effect; inactive = flat fitted curve, though single readings scatter.
Classes used: TRUE = active, FALSE = inactive

>>> print(df.to_string())
                                    molecule  assigned_category
 0  Cc1ccc(N=C2NC(=O)/C(=C/C=C/c3ccco3)S2)cc1C               TRUE
 1    COc1cccc(C(=O)NCc2ccc3[nH]c(C)cc3c2)c1              FALSE
 2  CCOc1ccc(CCn2c(-c3ccco3)nc3ccccc3c2=O)cc1OCC              FALSE
 3         Cn1c(SCc2nc3ccccc3s2)nnc1-c1cccs1              FALSE
 4  CC1CCCCN1CCNC(=O)c1cnn2ccccc12 (stereo not drawn)              FALSE
 5  CC(C)(C)C1C=C(Sc2ccccc2)C(=O)O1 (stereo not drawn)              FALSE
 6  O=C1Nc2ccc(S(=O)(=O)N3CCCCCC3)c3cccc1c23              FALSE
 7  COc1ccc(OC)c(NC(=O)CSc2nc(O)cc(=O)n2CC(C)C)c1              FALSE
 8  CN=c1scc(-c2ccccc2F)n1/N=C/c1ccc(O)c(O)c1O               TRUE
 9     CC(=O)COc1ccc2c(-c3ccccc3)cc(=O)oc2c1              FALSE
10       CC(C)C(=O)Nc1ccc(C(=O)N2CCCCCC2)cc1              FALSE
11  O=C(NCCOC(=O)c1ccccc1C(=O)OCCNC(=O)c1cccnc1)c1cccnc1              FALSE
12  CCOC(=O)C1CCCN(CC(=O)Nc2c(C(=O)OC)[nH]c3ccc(C)cc23)C1 (stereo not drawn)              FALSE
13  Cn1c(C(=O)NCCCN2CCN(c3ccccc3F)CC2)cc2c(=O)n(C)c3ccccc3c21              FALSE
14  Cc1ccc(NC(=O)CSc2nc(O)cc(=O)n2-c2ccc(C)cc2)cc1              FALSE
15  CCN(CC)CCNc1nc(-c2ccccc2)c2c(c1C#N)CC(C)(C)OC2              FALSE
16  O=C(NN=Cc1ccc(N2CCOCC2)s1)c1ccc([N+](=O)[O-])cc1              FALSE
17  O=C(Cn1cnc2sc(-c3ccccc3)cc2c1=O)NCc1ccco1               TRUE
18  N#CCc1ccc(NC(=O)/C=C/c2ccc([N+](=O)[O-])o2)cc1               TRUE
19  Cc1cc(NS(=O)(=O)c2ccc(Nc3nc(-c4ccc(C)c(C)c4)cs3)cc2)no1              FALSE
20  O=C(NC1CCCCC1)C(c1ccco1)N(C(=O)c1csnn1)c1cccc(F)c1 (stereo not drawn)              FALSE
21  O=C(OCc1nc2ccccc2[n+]([O-])c1C(=O)c1ccccc1)c1cccs1              FALSE
22  COc1ccc(NC(=O)CSc2nc(O)cc(=O)n2-c2ccc(OC)cc2)cc1              FALSE
23  Cc1ccc(C(=O)COC(=O)CNC(=O)CN2C(=O)c3ccccc3C2=O)cc1              FALSE
24  Cc1ccc(C(=O)N/C(=C/c2cccs2)C(=O)NCc2ccco2)cc1              FALSE
25  Cc1cc(NC(=O)COC(=O)CCCOc2ccc(Cl)cc2C)no1              FALSE
26  CC1(C)CC(=O)C2=C(C1)Oc1ncn(CCCO)c(=N)c1C2c1ccccc1 (stereo not drawn)              FALSE
27  Cc1cc(C)c2c(N=CN(C)C)c(C(=O)N3CCN(c4ncccn4)CC3)sc2n1              FALSE
28  O=[N+]([O-])c1c(NCCO)cc(N2CCN(Cc3ccc4c(c3)OCO4)CC2)c2nonc12              FALSE
29  CCn1cc(C(=O)N2CCOCC2)c(=O)c2cc(S(=O)(=O)N(C)C)ccc21              FALSE
30  Nc1c(C(=O)Nc2ccc3c(c2)OCCO3)nnn1CCc1ccccc1              FALSE
31   N#Cc1cccc(C(=O)N(CCc2ccccc2)Cc2cccs2)c1              FALSE
32  C[C@@H]1CN([C@@H](C)CO)C(=O)c2cc(NC(=O)CCC(F)(F)F)ccc2O[C@H]1CN(C)S(=O)(=O)c1ccc(Cl)cc1              FALSE
33  Cc1ccc(C(=O)Oc2coc(CSc3nnc(NC(=O)c4cccs4)s3)cc2=O)cc1               TRUE
34  Cc1cccn2c(=O)c3cc(C(=O)NCCN4CCOCC4)c(=N)n(CCN4CCOCC4)c3nc12              FALSE
35  CCCOc1ccc(N2C(=O)CC(NCCc3ccc(S(N)(=O)=O)cc3)C2=O)cc1 (stereo not drawn)              FALSE
36  COc1cc(C(=O)OCC(=O)Nc2c(F)c(F)c(F)c(F)c2F)cc(OC)c1OC              FALSE
37   O=C1N=c2ccccc2=C1c1sc(Nc2ccc(O)cc2)nc1O               TRUE
38     O=c1cc(CO)oc(CN2CCN(Cc3ccccc3)CC2)c1O              FALSE
39  COCc1c(C(=O)OCC(=O)c2c(N)n(CC(C)C)c(=O)n(C)c2=O)oc2ccccc12              FALSE
40      COc1cccc(NC(=O)CSc2nncn2-c2ccccn2)c1              FALSE
41         Cc1cc(SCC(=O)NC2CCCCC2)nc2ccccc12              FALSE
42       CCCn1nnc(NC(=O)c2cccc(OCC(C)C)c2)n1              FALSE
